Values compiled from patent US8575135B2.

Collected log10(EC50) values appear next to each entry.
Test system: NS5A chimeric genotype 2a JFH-1 replicon with genotype 2b MD2b-1 strain NS5A gene (M31 present)
measurement-description: microbe, parasite or virus in culture
Format: cell-based, HCV
measurement-parameters: Hepatitis C virus, read-out: 2b (t) (nM)
quantity: log10(EC50) (log10 of the value in nM)

[[record]]
compound = "CCC(C)[C@H](NC(=O)OC)C(=O)N1C[C@@H](C)CC1c1ncc(-c2ccc3c(c2)COc2cc4c(ccc5nc([C@@H]6CC(COC)CN6C(=O)[C@@H](NC(=O)OC)C(C)C)[nH]c54)cc2-3)[nH]1 (stereo in doubt) [Example QC]"
readout_number = -0.50

[[record]]
compound = "COC[C@H]1C[C@@H](c2nc3ccc4cc5c(cc4c3[nH]2)OCc2cc(-c3cnc([C@@H]4CCCN4C(=O)[C@@H](NC(=O)OC)C(C)C)[nH]3)ccc2-5)N(C(=O)[C@H](N)c2ccccc2)C1 [Example OO]"
readout_number = -1.70

[[record]]
compound = "CC[C@@H](C)[C@H](NC(=O)OC)C(=O)N1C[C@@H](COC)C[C@H]1c1ncc(-c2ccc3c(c2)COc2cc4c(ccc5nc([C@@H]6CC[C@H](C)N6C(=O)[C@@H](NC(=O)OC)C(C)C)[nH]c54)cc2-3)[nH]1 [Example OG]"
readout_number = -0.36

[[record]]
compound = "COC(=O)N[C@H](C(=O)N1[C@@H]2C[C@@H]2C[C@H]1c1ncc(-c2ccc3c(c2)COc2cc4c(ccc5nc([C@@H]6C[C@H](COC(F)F)CN6C(=O)[C@H](NC(=O)OC)c6ccccc6)[nH]c54)cc2-3)[nH]1)C(C)C [Example MW]"
readout_number = -1.37

[[record]]
compound = "COC[C@H]1C[C@@H](c2ncc(-c3ccc4c(c3)COc3cc5c(ccc6nc([C@@H]7C[C@H](COC)CN7C(=O)[C@@H](NC(=O)OC)C(C)C)[nH]c65)cc3-4)[nH]2)N(C(=O)[C@@H](NC(=O)OC)C(C)C)C1 [Example OI]"
readout_number = -0.75

[[record]]
compound = "CC[C@H](C)[C@H](NC(=O)OC)C(=O)N1C[C@@H](COC)C[C@H]1c1ncc(-c2ccc3c(c2)COc2cc4c(ccc5nc([C@@H]6CC[C@H](C)N6C(=O)[C@@H](NC(=O)OC)C(C)C)[nH]c54)cc2-3)[nH]1 [Example OF]"
readout_number = -0.71

[[record]]
compound = "COC[C@H]1C[C@@H](c2nc3ccc4cc5c(cc4c3[nH]2)OCc2cc(-c3cnc([C@@H]4CC[C@H](C)N4C(=O)[C@@H](NC(=O)OC)C(C)C)[nH]3)ccc2-5)N(C(=O)[C@@H](NC(=O)OC)C(C)C)C1 [Example MP]"
readout_number = -1.49

[[record]]
compound = "COC(=O)N[C@H](C(=O)N1[C@@H](C)CC[C@H]1c1ncc(-c2ccc3c(c2)COc2cc4c(ccc5nc([C@@H]6C[C@H](C)CN6C(=O)[C@H](NC(=O)OC)c6ccccc6)[nH]c54)cc2-3)[nH]1)C(C)C [Compound 617]"
readout_number = -1.89

[[record]]
compound = "COC(=O)N[C@H](C(=O)N1CCC[C@H]1c1nc2c(ccc3cc4c(cc32)OCc2cc(-c3cnc([C@@H]5CCCN5C(=O)[C@H](NC(=O)OC)c5ccccc5)[nH]3)ccc2-4)[nH]1)C(C)C [Example MD]"
readout_number = -1.80

[[record]]
compound = "COC[C@H]1C[C@@H](c2ncc(-c3ccc4c(c3)COc3cc5c(ccc6nc([C@@H]7C[C@H](C)CN7C(=O)[C@@H](NC(=O)OC)C(C)C)[nH]c65)cc3-4)[nH]2)N(C(=O)[C@H](NC(=O)OC)c2ccccc2)C1 [Example NM]"
readout_number = -1.89

[[record]]
compound = "COC(=O)N[C@H](C(=O)N1C[C@@H](COC(F)F)C[C@H]1c1nc2ccc3cc4c(cc3c2[nH]1)OCc1cc(-c2cnc(C3CCCN3C(=O)OC(C)(C)C)[nH]2)ccc1-4)C(C)C (some centres unmarked) [Example PQ]"
readout_number = -1.49

[[record]]
compound = "COC[C@H]1C[C@@H](c2nc3ccc4cc5c(cc4c3[nH]2)OCc2cc(-c3cnc([C@@H]4C[C@H](C)CN4C(=O)[C@@H](NC(=O)OC)C(C)C)[nH]3)ccc2-5)N(C(=O)[C@H](NC(=O)OC)c2ccccc2)C1 [Example MN]"
readout_number = -1.89

[[record]]
compound = "COC[C@@H]1C[C@@H](c2nc3ccc4cc5c(cc4c3[nH]2)OCc2cc(-c3cnc([C@@H]4CCCN4C(=O)[C@@H](NC(=O)OC)C(C)C)[nH]3)ccc2-5)N(C(=O)[C@H](NC(=O)OC)c2ccccc2)C1 [Example MQ]"
readout_number = -2.05

[[record]]
compound = "COC[C@H]1C[C@@H](c2nc3ccc4cc5c(cc4c3[nH]2)OCc2cc(-c3cnc([C@@H]4C[C@H](C)CN4C(=O)[C@@H](NC(=O)OC)C(C)C)[nH]3)ccc2-5)N(C(=O)[C@@H](NC(=O)OC)C(C)C)C1 [Example MO]"
readout_number = -0.86

[[record]]
compound = "COC[C@H]1C[C@@H](c2nc3ccc4cc5c(cc4c3[nH]2)OCc2cc(-c3cnc([C@@H]4C[C@H](C)CN4C(=O)[C@@H](NC(=O)OC)[C@@H](C)OC)[nH]3)ccc2-5)N(C(=O)[C@@H](NC(=O)OC)[C@@H](C)OC)C1 [Example NK]"
readout_number = -0.81

[[record]]
compound = "COC[C@H]1C[C@@H](c2ncc(-c3ccc4c(c3)COc3cc5c(cc3-4)CCc3nc([C@@H]4CCCN4C(=O)[C@@H](NC(=O)OC)C(C)C)[nH]c3-5)[nH]2)N(C(=O)[C@H](NC(=O)OC)c2ccccc2)C1 [Example OK]"
readout_number = -1.44

[[record]]
compound = "COC(=O)N[C@H](C(=O)N1CCC[C@H]1c1ncc(-c2ccc3c(c2)COc2cc4c(ccc5nc([C@@H]6CCCN6C(=O)[C@H](NC(=O)OC)c6ccccc6)[nH]c54)cc2-3)[nH]1)[C@@H](C)OC [Compound 588]"
readout_number = -1.92

